The values you see were collected from the RNAGym collection of RNA variant scans (doi:10.7554/elife.80360).

B1: HDV Ribozyme (parent)
chain: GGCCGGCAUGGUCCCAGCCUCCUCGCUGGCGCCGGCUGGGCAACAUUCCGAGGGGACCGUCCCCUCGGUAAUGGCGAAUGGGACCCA

Variants of: B1
Protocol notes: self-cleavage, relative activity (ratio to wild type); higher = more cleavage; co-transcriptional
Recorded self-cleavage for the following variants
Just the number.

Known self-cleavage results, listed for orientation:
Var	Test readout	Meas value
A70G U72A	self-cleavage	0.594
U12C C30A	self-cleavage	0.193
C15A U69A	self-cleavage	0.506
C15G G81U	self-cleavage	0.297
G54U A70G	self-cleavage	1.03

Lookup: Please give measured self-cleavage of the following entry: A45C C48U
Found: 0.642

Lookup: Please give measured self-cleavage of the following entry: C24A C57U
Found: 0.727

Lookup: Please give measured self-cleavage of the following entry: U46G C66A
Found: 0.308
